All values here come from patent US20240392002A1.

target: T1, extracellular domain of human ROR1 (human, UniProt Q01973 30-406); assay: BLI, IgG1 on biosensor, soluble ROR ectodomain
T1 construct: bought protein; biotinylated in the bivalent assay format; also called Acro Cat. No. RO1-H522y
T1 sequence (Q01973 30-406 limits assumed): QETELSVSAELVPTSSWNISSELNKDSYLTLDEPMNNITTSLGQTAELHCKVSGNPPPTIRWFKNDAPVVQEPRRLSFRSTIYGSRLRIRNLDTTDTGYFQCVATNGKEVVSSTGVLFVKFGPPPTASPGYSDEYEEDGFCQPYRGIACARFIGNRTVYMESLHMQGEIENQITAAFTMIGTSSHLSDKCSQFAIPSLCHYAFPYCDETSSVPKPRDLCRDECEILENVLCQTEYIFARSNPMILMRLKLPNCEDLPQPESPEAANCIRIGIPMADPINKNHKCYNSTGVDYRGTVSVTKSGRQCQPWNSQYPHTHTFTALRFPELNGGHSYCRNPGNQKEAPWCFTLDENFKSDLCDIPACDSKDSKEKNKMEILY
Value Kind: binding result

- I2C-1 IgG1 (antibody, V domains shown, human IgG1) VH: EVQLVESGGGLVQPGGSLRLSCAASGFTFTSYGIHWVRQAPGKGLEWVAAIYPHSGFTSYADSVKGRFTISADTSKNTAYLQMNSLRAEDTAVYYCARTSYRGFDYWGQGTLVTVSS VL: DIQMTQSPSSLSASVGDRVTITCRASQSVSSAVAWYQQKPGKAPKLLIYSASSLYSGVPSRFSGSRSGTDFTLTISSLQPEDFATYYCQQYYWYPGTFGQGTKVEIK: binds
- I2A-22 IgG1 (antibody, V domains shown, human IgG1) VH: EVQLVESGGGLVQPGGSLRLSCAASGFTFSSYFIHWVRQAPGKGLEWVAAIYPSGWYTSYADSVKGRFTISADTSKNTAYLQMNSLRAEDTAVYYCARVQAGVFDYWGQGTLVTVSS VL: DIQMTQSPSSLSASVGDRVTITCRASQSVSSAVAWYQQKPGKAPKLLIYSASSLYSGVPSRFSGSRSGTDFTLTISSLQPEDFATYYCQQYYYYPGTFGQGTKVEIK: binds
- I2C-6 IgG1 (antibody, V domains shown, human IgG1) VH: EVQLVESGGGLVQPGGSLRLSCAASGFTFSWYFIHWVRQAPGKGLEWVARIYSTGGYTEYADSVKGRFTISADTSKNTAYLQMNSLRAEDTAVYYCARSAFFGALDYWGQGTLVTVSS VL: DIQMTQSPSSLSASVGDRVTITCRASQSVSSAVAWYQQKPGKAPKLLIYSASSLYSGVPSRFSGSRSGTDFTLTISSLQPEDFATYYCQQYPSGPETFGQGTKVEIK: binds
